# Test system: SNB-75 CNS
# test: NCI tumour cell line growth inhibition, 48 h
assayEndpoint: GI50

Consider the following illustrative entries.
N#Cc1ccc2c(c1)C(=O)c1c-2n(CCCN=[N+]=[N-])c(=O)c2cc([N+](=O)[O-])ccc12 ... 17.4 µM
CCN(CC)CCOc1nc2cc(OC)c(OC)cc2c2c1-c1ccc(OC)cc1C2=O ... 16.8 µM
N#C/C(=C\c1cccnc1)c1nc2ccccc2o1 ... > 100 µM
COc1cc(/C=C/c2cc(/C=C/c3ccc(O)c(OC)c3)[nH]c(=O)n2)ccc1O ... 1.72 µM

Query: Please look up its GI50: S=C(Nc1ccccc1)N1CCn2c1nsc2=Nc1ccccc1
Reply: 66.5 µM
